# experimental_details: In vivo pharmacokinetics of oral formulations in healthy human subjects
# assay_conditions: human, plasma, oral; all treatment regimens regardless of formulation and food intake; read-out: mean t1/2
assay_metric: half-life

Ask: Any idea what half-life was measured for Cc1ccc(C2O[C@H](CO)[C@@H](O)[C@H](O)[C@H]2O)cc1Cc1ccc(-c2ccc(F)cc2)s1 (stereo partly shown) [compound of Formula (I-S)] ?
Result: 8 to 12 h
